- MEASUREMENT_TARGET: TrkA (Homo sapiens)
- Construct: expressed in transfected cells; host or cells: U2OS
- ASSAY_DETAILS: Enzyme Fragment Complementation cell-based assay, TrkA
- STATED_CONDITIONS: U2OS-cells over-expressing TrkA; ligand 10 ng/mL; 3 hours incubation
pEC50: −log10 of the molar value.
MEASUREMENT_KIND: pEC50

Field: example entries. Status: answers known.
MOLECULE: Cc1cc(-n2c(=O)[nH]c(=O)n(-c3ccccn3)c2=O)ccc1Oc1ccccc1
VALUE_OBSERVED: 6.06
--
MOLECULE: O=c1[nH]c(=O)n(-c2ccc(Oc3ccccc3)c(OC3CCOC3)c2)c(=O)n1-c1ccccc1 (centres unmarked)
VALUE_OBSERVED: 6.11
--
MOLECULE: O=c1[nH]c(=O)n(-c2ccc(N3CCOCC3)cc2)c(=O)n1-c1ccc(Oc2ccccc2)cc1
VALUE_OBSERVED: 5.96
--
MOLECULE: COc1cc(-n2c(=O)[nH]c(=O)n(C)c2=O)cc(C)c1Oc1ccccc1
VALUE_OBSERVED: 6.10

[P] N#Cc1cc(-n2c(=O)[nH]c(=O)n(-c3ccccc3)c2=O)ccc1Oc1ccccc1
[Q] O=c1[nH]c(=O)n(-c2ccc(Oc3ccccc3)c(OC3CCCC3)c2)c(=O)n1-c1ccccc1
[R] COc1c(-n2c(=O)[nH]c(=O)n(-c3ccccc3)c2=O)ccc(Oc2ccccc2)c1C
[S] CCOc1cc(-n2c(=O)[nH]c(=O)n(C)c2=O)ccc1Oc1ccccc1
List from greatest to least pEC50. I would appreciate it if you listed the labels in the requested order.
R, Q, S, P

* * *

- MEASUREMENT_TARGET: IGF1R (Homo sapiens, UniProt P08069)
- Sequence (P08069 31-736 limits assumed): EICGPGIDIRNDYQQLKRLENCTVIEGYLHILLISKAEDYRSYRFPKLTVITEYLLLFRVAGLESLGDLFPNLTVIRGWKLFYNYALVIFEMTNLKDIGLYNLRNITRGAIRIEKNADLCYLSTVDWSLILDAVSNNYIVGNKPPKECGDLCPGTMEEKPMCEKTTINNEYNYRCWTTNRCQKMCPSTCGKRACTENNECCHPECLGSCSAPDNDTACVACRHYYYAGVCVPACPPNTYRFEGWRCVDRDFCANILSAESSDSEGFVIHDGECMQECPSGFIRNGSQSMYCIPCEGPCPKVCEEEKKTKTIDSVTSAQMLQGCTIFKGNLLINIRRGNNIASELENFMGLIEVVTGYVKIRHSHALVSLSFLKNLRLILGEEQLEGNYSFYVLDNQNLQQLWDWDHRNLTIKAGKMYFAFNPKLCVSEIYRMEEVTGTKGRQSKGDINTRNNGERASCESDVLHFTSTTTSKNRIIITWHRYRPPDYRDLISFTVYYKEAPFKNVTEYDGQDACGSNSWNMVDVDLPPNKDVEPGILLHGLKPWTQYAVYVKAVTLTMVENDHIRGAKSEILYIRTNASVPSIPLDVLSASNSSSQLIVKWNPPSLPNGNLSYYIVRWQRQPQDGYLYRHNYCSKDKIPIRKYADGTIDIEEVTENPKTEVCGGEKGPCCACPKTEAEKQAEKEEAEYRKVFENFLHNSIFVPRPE
- Sequence (P08069 741-1367 limits assumed): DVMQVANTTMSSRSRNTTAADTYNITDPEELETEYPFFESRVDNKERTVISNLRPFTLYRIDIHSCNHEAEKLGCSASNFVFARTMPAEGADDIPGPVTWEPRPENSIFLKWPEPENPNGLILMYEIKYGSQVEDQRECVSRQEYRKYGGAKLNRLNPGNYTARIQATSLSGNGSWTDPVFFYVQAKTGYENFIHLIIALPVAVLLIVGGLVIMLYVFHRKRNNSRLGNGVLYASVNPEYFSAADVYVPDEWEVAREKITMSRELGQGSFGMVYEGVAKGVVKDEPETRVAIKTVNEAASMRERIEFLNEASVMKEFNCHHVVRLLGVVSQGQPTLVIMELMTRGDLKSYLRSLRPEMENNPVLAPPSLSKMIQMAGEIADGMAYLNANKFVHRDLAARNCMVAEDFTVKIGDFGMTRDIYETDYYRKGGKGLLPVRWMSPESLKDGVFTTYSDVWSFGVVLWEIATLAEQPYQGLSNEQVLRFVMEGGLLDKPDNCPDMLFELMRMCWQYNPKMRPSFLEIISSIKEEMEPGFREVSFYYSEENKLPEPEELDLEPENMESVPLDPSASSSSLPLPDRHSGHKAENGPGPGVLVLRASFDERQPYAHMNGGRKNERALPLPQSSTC
- ASSAY_DETAILS: Enzyme Fragment Complementation cell-based assay, IGF1R
- STATED_CONDITIONS: cryopreserved HEK293-cells expressing IGFR1; ligand 10 ng/mL; 3 hours incubation
MEASUREMENT_KIND: EC50 (nM)

Field: example entries. Status: answers known.
COMPOUND: O=c1[nH]c(=O)n(-c2ccc(Oc3ccc(Cl)cc3)cc2)c(=O)n1-c1ccccc1 [Example 7]
MEASUREMENT_TARGET: IGF1R (Homo sapiens, UniProt P08069)
EC50 (nM): 2600
--
COMPOUND: N#Cc1ccc(Oc2ccc(-n3c(=O)[nH]c(=O)n(-c4ccccc4)c3=O)cc2)cc1 [Example 8]
MEASUREMENT_TARGET: IGF1R (Homo sapiens, UniProt P08069)
EC50 (nM): 2200

[1] O=c1[nH]c(=O)n(-c2ccc(Oc3ccccc3)cc2)c(=O)n1-c1ccccc1 [Example 1]
[2] COc1cc(Oc2ccccc2)ccc1-n1c(=O)[nH]c(=O)n(-c2ccccc2)c1=O [Example 9]
Short answer wanted: higher EC50, 1 or 2 ? Write down the label of the entry you select.
1

* * *

- MEASUREMENT_TARGET: TrkA (Homo sapiens, UniProt P04629)
- Sequence (P04629 33-796): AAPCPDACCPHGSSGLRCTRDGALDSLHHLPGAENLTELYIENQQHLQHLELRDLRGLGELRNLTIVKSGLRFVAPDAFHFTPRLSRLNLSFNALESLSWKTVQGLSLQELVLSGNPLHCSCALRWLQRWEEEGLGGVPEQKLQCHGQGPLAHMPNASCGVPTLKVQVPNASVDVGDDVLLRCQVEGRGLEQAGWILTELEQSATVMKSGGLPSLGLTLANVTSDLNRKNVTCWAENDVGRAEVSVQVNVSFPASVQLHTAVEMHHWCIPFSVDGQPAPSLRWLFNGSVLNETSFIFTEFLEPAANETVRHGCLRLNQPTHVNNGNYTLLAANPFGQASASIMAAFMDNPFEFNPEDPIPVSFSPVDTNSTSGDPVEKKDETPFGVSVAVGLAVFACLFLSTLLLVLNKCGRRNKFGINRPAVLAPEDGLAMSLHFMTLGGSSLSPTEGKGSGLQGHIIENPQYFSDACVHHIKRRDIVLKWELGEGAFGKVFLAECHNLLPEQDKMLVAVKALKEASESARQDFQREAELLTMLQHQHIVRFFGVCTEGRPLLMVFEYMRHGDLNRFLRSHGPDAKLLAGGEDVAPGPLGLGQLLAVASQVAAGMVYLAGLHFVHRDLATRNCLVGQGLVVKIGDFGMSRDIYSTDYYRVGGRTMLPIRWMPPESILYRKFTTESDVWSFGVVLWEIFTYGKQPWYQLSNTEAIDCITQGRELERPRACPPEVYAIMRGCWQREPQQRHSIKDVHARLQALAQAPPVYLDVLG
- ASSAY_DETAILS: Enzyme Fragment Complementation cell-based assay, TrkA
- STATED_CONDITIONS: U2OS-cells over-expressing TrkA; ligand 10 ng/mL; 3 hours incubation
pEC50: −log10 of the molar value.
MEASUREMENT_KIND: pEC50

[A] Cc1cc(-n2c(=O)[nH]c(=O)n(-c3cccc(Cl)c3)c2=O)ccc1Oc1ccccc1
[B] Cc1cc(-n2c(=O)[nH]c(=O)n(-c3ccc4[nH]ccc4c3)c2=O)ccc1Oc1ccccc1
[C] O=c1[nH]c(=O)n(-c2ccc(Oc3ccccc3)c(CO)c2)c(=O)n1-c1ccccc1
List the items above again, this time ordered by increasing pEC50. I would appreciate it if you listed the labels in the requested order.
C, B, A
